Test system: HOP-92
Experiment: NCI tumour cell line growth inhibition, 48 h
Activity calls are given as the source filed them. Cut-off read from the data, not from the text of the source: active = GI50 up to about 1.1 µM and inactive = higher.
Value kind: GI50

COC1CC(n2cc(F)c(N)nc2=O)OC1CO (centres undefined)    > 100 µM (inactive)
Nc1nc(=O)n(C2CC(O)C(CO)O2)c2nc(-c3ccc(-c4ccccc4)cc3)cnc12 (centres undefined)    56.2 µM (inactive)
COc1cc2c(cc1O)NC(=O)[C@@H]1CCCN1C2=O    > 100 µM (inactive)
O=c1ccc2ccc(CBr)cc2o1    1.68 µM (inactive)
CC(=O)O[C@H]1CC[C@@]2(C)C(=CC[C@H]3C(CC#N)[C@@](C)(C#N)CCC32)C1 (some centres undefined)    16.1 µM (inactive)
C/C(=C\c1ccccc1)C(=O)NCc1ccc(C(=O)NCCc2c[nH]c3ccccc23)cc1    > 100 µM (inactive)

# per-item lookup of GI50; items listed below
1. O=C(CCCCCCCCC(=O)OCC1OC(n2cnc3c(=O)[nH]cnc32)C(O)C1O)OCC1OC(n2cnc3c(=O)[nH]cnc32)C(O)C1O (centres undefined)
2. C=C1C(=O)O[C@@H]2[C@H](O)[C@@H](C)[C@@H]3C=CC(=O)[C@@]3(C)[C@@H](OC(=O)/C(C)=C/C)[C@H]12
3. C=C[C@]1(C)CCC2=C(CCC3C2(C)CCC[C@]3(C)CO)C1 (some centres undefined)

Result:
["> 100 µM (inactive)", "0.548 µM (active)", "43.1 µM (inactive)"]
